# Tested On: Histamine H1 receptor (Cavia porcellus)
# Measurement Notes: Antagonist activity at histamine H1 receptor in guinea pig ileum assessed as inhibition of histamine-induced contractions at 0.5 mg/ml relative to control
# Format: functional, tissue-based
Measure: Emax (%)

Compound | Tested On | Measure | Measured Result
Cc1cc(=O)oc2ccc(OCC(O)CN3CCN(c4ccccc4)CC3)cc12 (stereo unspecified) | Histamine H1 receptor (Cavia porcellus) | Emax | 95
O=c1cc(-c2ccccc2)c2ccc(OCC(O)CN3CCNCC3)cc2o1 (stereo unspecified) | Histamine H1 receptor (Cavia porcellus) | Emax | 100
O=c1cc(-c2ccccc2)c2ccc(OCC(O)CN3CCCCC3)cc2o1 (stereo unspecified) | Histamine H1 receptor (Cavia porcellus) | Emax | 94
O=c1cc(-c2ccccc2)c2ccc(OCC(O)CN3CCOCC3)cc2o1 (stereo unspecified) | Histamine H1 receptor (Cavia porcellus) | Emax | 95
CCN(CC)CC(O)COc1ccc2c(-c3ccccc3)cc(=O)oc2c1 (stereo unspecified) | Histamine H1 receptor (Cavia porcellus) | Emax | 95
CCN(CC)CC(O)COc1ccc2oc(=O)cc(C)c2c1 (stereo unspecified) | Histamine H1 receptor (Cavia porcellus) | Emax | 96

* * *

# Tested On: Histamine H1 receptor (Cavia porcellus)
# Measurement Notes: Antagonist activity at histamine H1 receptor in guinea pig ileum assessed as inhibition of histamine-induced contractions at 1.0 mg/ml
# Assay type: functional, tissue-based
pEC50: −log10 of the molar value.

Compound | pEC50
COc1ccccc1N1CCN(CC(O)COc2ccc3oc(=O)cc(C)c3c2)CC1 (stereo unspecified) | 7.70
O=c1cc(-c2ccccc2)c2ccc(OCC(O)CN3CCCCC3)cc2o1 (stereo unspecified) | 7.63
O=c1cc(-c2ccccc2)c2ccc(OCC(O)CN3CCN(c4ccccc4)CC3)cc2o1 (stereo unspecified) | 7.74
Cc1cc(=O)oc2ccc(OCC(O)CN3CCCCC3)cc12 (stereo unspecified) | 7.58
O=c1cc(-c2ccccc2)c2ccc(OCC(O)CN3CCOCC3)cc2o1 (stereo unspecified) | 7.66
CCCNCC(O)COc1ccc2c(-c3ccccc3)cc(=O)oc2c1 (stereo unspecified) | 7.62

* * *

# Tested On: Histamine H1 receptor (Cavia porcellus, UniProt P31389)
# Sequence (P31389 whole entry): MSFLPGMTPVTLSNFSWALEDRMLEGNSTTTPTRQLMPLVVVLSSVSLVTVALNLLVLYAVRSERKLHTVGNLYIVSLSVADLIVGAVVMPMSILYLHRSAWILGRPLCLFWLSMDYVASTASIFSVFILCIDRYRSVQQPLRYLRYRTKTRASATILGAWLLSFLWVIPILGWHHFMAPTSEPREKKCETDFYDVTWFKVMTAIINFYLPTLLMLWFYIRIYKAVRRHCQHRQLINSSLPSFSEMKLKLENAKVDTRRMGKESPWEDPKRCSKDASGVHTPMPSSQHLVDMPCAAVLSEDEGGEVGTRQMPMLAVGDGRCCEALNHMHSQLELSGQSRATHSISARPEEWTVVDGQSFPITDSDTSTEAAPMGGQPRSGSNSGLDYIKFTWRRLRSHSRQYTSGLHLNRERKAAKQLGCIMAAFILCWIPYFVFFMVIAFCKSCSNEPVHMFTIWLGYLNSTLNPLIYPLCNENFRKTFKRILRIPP
# Measurement Notes: Antagonist activity at histamine H1 receptor in guinea pig ileum assessed as inhibition of histamine-induced contractions at 0.1 mg/ml
# Format: functional, tissue-based
Measure: EC50 (nM)

Molecule | Measured Result
Cc1cc(=O)oc2ccc(OCC(O)CN3CCCCC3)cc12 (configuration not stated) | 17.3
O=c1cc(-c2ccccc2)c2ccc(OCC(O)CN3CCCCC3)cc2o1 (configuration not stated) | 14.8
O=c1cc(-c2ccccc2)c2ccc(OCC(O)CN3CCOCC3)cc2o1 (configuration not stated) | 14.4
O=c1cc(-c2ccccc2)c2ccc(OCC(O)CN3CCN(c4ccccc4)CC3)cc2o1 (configuration not stated) | 11.8
Cc1cc(=O)oc2ccc(OCC(O)CN3CCN(c4ccccc4)CC3)cc12 (configuration not stated) | 13.2
CCN(CC)CC(O)COc1ccc2oc(=O)cc(C)c2c1 (configuration not stated) | 17
O=c1cc(-c2ccccc2)c2ccc(OCC(O)CN3CCNCC3)cc2o1 (configuration not stated) | 15.2
COc1ccccc1N1CCN(CC(O)COc2ccc3oc(=O)cc(C)c3c2)CC1 (configuration not stated) | 13.7
COc1ccccc1N1CCN(CC(O)COc2ccc3c(-c4ccccc4)cc(=O)oc3c2)CC1 (configuration not stated) | 11.7
Cc1cc(=O)oc2ccc(OCC(O)CN3CCN(C)CC3)cc12 (configuration not stated) | 17.4
CCN(CC)CC(O)COc1ccc2c(-c3ccccc3)cc(=O)oc2c1 (configuration not stated) | 16.1
CCCNCC(O)COc1ccc2c(-c3ccccc3)cc(=O)oc2c1 (configuration not stated) | 15.8

* * *

# Tested On: Histamine H1 receptor (Cavia porcellus, UniProt P31389)
# Measurement Notes: Antagonist activity at histamine H1 receptor in guinea pig ileum assessed as inhibition of histamine-induced contractions at 1.0 mg/ml
# Type: functional, tissue-based
pEC50: −log10 of the molar value.

Molecule | pEC50
Cc1cc(=O)oc2ccc(OCC(O)CN3CCN(c4ccccc4)CC3)cc12 (stereo unspecified) | 7.67
CCN(CC)CC(O)COc1ccc2c(-c3ccccc3)cc(=O)oc2c1 (stereo unspecified) | 7.62
O=c1cc(-c2ccccc2)c2ccc(OCC(O)CN3CCNCC3)cc2o1 (stereo unspecified) | 7.65
CCN(CC)CC(O)COc1ccc2oc(=O)cc(C)c2c1 (stereo unspecified) | 7.56
COc1ccccc1N1CCN(CC(O)COc2ccc3c(-c4ccccc4)cc(=O)oc3c2)CC1 (stereo unspecified) | 7.74
Cc1cc(=O)oc2ccc(OCC(O)CN3CCN(C)CC3)cc12 (stereo unspecified) | 7.61

Just for reference, ChEMBL document CHEMBL1144223 is where these values come from.
